B1: CDC25B (parent)
chain: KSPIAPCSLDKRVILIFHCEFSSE

Variants of: B1
Assay Procedure: protein stability index of a GFP-peptide fusion (GPS, HEK-293T) (PSI 1-6); higher = more stable;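 note: lentivirally expressed fusions sorted by FACS into six bins by GFP to DsRed ratio, PSI derived from sequencing read proportions per bin multiplied by bin number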
Condition Label: c terminus: a fixed tail appended
Would you mind telling me the reported protein stability index of each entry?

# annotated cases, reported protein stability index shown
[
  {
    "Variant Identifier": "K11M",
    "protein stability index": 2.9
  },
  {
    "Variant Identifier": "L9T",
    "protein stability index": 2.22
  },
  {
    "Variant Identifier": "C19A",
    "protein stability index": 3.06
  },
  {
    "Variant Identifier": "K1N",
    "protein stability index": 1.96
  },
  {
    "Variant Identifier": "I14A",
    "protein stability index": 2.65
  }
]

Below are 4 variants. Give each one its protein stability index.
1. K11F
2. K1F
3. L15Q
4. S22I

*A*
1: 2.69; 2: 2.7; 3: 1.84; 4: 1.34

Your task in this section: give protein stability index for each listed record.
1. I16W
2. H18F
3. C7R

*A*
1.05
3.53
3.39

Provide protein stability index values for the following items, in order.
1. I16R
2. D10G
3. L9M
4. L9Y
5. H18M
6. S22F
7. R12K

*A*
2.5
2.74
2.53
3.94
1.88
2.21
3.98

Required: protein stability index, one value per variant below.
1. V13G
2. F17M
3. L9S
4. E24V
5. L15Y

*A*
[1.14, 1.66, 2.4, 2.98, 2.66]

For each of the items listed, what is its protein stability index?
1. S22P
2. C19R
3. C19Y
4. L15P

*A*
2.1
2.96
2.08
2.28

Each of the following entries comes with a recorded value; kindly state protein stability index for each.
1. I16E
2. C7M

*A*
1: 1.07; 2: 2.15

Would you mind listing protein stability index for each of the following variants?
1. H18C
2. E20K
3. S23F
4. E24L
5. I16H
6. D10Q

*A*
1. 3.24
2. 1.64
3. 4.12
4. 1.98
5. 1.68
6. 1.71

The following variants each have a reported value; give each one's protein stability index.
1. S2M
2. E20P
3. P6R
4. A5W
5. F17D
6. V13C

*A*
[1.13, 3.36, 1.89, 2.46, 3.13, 1.21]
